The following binders are listed with their measured pKd values.
Biological target: T1, monkey C5-mmh (monkey, UniProt P01031 19-1676 (human entry), limits assumed)
T1 construct: Expressed with a C-terminal myc-myc-hexahistidine tag
T1 chain: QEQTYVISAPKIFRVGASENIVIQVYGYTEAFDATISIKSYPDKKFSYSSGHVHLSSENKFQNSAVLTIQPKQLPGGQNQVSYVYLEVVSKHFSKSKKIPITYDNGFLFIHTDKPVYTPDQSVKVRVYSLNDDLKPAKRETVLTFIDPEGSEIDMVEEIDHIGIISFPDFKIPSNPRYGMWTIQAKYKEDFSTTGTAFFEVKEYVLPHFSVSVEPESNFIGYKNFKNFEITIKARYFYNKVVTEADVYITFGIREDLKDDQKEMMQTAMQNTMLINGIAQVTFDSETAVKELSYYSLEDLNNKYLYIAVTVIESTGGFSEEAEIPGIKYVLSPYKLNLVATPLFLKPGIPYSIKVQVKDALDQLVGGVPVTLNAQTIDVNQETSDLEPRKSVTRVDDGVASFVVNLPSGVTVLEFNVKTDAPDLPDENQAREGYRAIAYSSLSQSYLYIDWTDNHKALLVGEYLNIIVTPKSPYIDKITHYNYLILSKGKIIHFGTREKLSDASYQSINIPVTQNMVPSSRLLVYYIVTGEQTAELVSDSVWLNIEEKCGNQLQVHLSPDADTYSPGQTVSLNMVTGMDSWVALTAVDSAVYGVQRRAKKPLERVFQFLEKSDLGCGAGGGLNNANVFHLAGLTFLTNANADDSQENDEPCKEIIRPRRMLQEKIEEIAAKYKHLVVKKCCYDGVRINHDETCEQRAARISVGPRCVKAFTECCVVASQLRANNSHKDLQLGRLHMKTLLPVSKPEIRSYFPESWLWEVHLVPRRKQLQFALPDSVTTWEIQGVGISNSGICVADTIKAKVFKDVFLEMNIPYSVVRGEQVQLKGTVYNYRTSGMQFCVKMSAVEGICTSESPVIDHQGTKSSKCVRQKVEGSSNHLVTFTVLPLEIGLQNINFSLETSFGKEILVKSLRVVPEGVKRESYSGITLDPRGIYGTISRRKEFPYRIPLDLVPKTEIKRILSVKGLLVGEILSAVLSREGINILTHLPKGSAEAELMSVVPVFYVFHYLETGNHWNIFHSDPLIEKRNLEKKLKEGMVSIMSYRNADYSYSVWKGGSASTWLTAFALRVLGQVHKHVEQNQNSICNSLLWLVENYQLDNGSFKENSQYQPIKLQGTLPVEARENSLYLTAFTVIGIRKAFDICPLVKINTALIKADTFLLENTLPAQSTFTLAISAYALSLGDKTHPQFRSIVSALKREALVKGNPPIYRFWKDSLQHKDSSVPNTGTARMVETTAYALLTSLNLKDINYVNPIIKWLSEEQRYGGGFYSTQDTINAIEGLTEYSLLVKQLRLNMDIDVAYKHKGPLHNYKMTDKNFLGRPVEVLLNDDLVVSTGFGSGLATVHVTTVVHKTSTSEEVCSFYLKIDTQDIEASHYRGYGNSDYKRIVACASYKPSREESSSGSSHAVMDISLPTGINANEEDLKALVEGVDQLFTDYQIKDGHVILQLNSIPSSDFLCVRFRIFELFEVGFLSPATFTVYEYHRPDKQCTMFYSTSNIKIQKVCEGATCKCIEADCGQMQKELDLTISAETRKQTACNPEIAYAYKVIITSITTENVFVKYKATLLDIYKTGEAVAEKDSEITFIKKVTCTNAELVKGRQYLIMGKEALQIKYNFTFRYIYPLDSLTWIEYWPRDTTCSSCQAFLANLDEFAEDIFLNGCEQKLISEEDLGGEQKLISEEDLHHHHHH
Test: SPR, mAb captured by anti-hFc, 25C
pKd: −log10 of the molar value.

- binder: "H4H12166P7 (antibody, human IgG4, V domains shown, human IgG4 Fc with S108P hinge mutation) VH: QVQLQESGPGLVKPSETLSLTCTVSGDSVSSSYWTWIRQPPGKGLEWIGYIYYSGSSNYNPSLKSRATISVDTSKNQFSLKLSSVTAADTAVYYCAREHNVDTTMIFDYWGQGTLVTVSS VL: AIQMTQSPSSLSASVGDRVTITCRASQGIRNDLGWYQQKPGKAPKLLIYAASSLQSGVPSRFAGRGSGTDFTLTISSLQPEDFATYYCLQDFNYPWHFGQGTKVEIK"
  pKd: 7.33
- binder: "H4H12167P (antibody, human IgG4, V domains shown) VH: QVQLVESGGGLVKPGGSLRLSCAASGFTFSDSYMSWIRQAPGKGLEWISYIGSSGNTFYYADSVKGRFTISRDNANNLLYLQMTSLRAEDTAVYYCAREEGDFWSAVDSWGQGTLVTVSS VL: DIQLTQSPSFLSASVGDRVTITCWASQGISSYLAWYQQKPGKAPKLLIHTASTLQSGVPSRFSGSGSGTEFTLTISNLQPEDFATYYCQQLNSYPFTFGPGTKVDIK"
  pKd: 9.50
- binder: "H4H12170P (antibody, human IgG4, V domains shown) VH: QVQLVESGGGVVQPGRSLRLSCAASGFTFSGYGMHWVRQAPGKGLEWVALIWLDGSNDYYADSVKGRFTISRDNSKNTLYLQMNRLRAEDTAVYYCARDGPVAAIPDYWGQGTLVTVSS VL: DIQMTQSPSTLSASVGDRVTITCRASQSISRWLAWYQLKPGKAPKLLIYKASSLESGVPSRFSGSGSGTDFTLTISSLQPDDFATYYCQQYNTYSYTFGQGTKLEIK"
  pKd: 9.70
